# measuredOn: KRAS G13C (Homo sapiens, UniProt P01116+P62937, G13C)
# Sequence (P01116 1-169 isoform P01116-2 G13C): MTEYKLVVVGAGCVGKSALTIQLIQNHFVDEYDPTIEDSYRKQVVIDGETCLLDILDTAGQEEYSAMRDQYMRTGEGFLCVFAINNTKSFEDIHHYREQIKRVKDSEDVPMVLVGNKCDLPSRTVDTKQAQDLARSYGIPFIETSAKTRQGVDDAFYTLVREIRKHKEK
# Sequence (P62937 whole entry): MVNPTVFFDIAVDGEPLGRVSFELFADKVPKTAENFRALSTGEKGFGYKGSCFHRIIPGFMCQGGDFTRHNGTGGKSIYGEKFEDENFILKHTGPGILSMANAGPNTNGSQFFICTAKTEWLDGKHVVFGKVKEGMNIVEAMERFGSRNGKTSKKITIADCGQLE
# experiment: Disruption of BRAF RBD interaction with Ras (FRET / MOA assay, with Cyclophilin A)
# Format: biochemical
# condition: read-out: KRAS G13C FRET data, IC50
pIC50: −log10 of the molar value.
Record form. Attribute: pIC50. Fill in for each entry.

INSERT INTO assay_data (compound, measuredon, recordedresult) VALUES
  ('CCn1c(-c2cccnc2[C@H](C)OC)c2c3cc(ccc31)-c1csc(n1)C[C@H](NC(=O)[C@H](C(C)C)N(C)C(=O)N1C[C@H]3CN(C)C[C@H]31)C(=O)N1CCC[C@H](N1)C(=O)OCC(C)(C)C2 [Example A497]', 'KRAS G13C (Homo sapiens, UniProt P01116+P62937, G13C)', '6.00 to 7.00');

Please give pIC50, item by item, for the list that follows.
1. CCn1c(-c2cccnc2[C@H](C)OC)c2c3cc(ccc31)-c1csc(n1)C[C@H](NC(=O)[C@H](C(C)C)N(C)C(=O)N1CC[C@]13CCCN(C)C3)C(=O)N1CCC[C@H](N1)C(=O)OCC(C)(C)C2 [Example A442]
2. CCn1c(-c2cc(N3CCN(C)CC3)cnc2[C@H](C)OC)c2c3cc(ccc31)-c1csc(n1)C[C@H](NC(C)=O)C(=O)N1CCC[C@H](N1)C(=O)OCC(C)(C)C2 [Example A321]
3. CCn1c(-c2cccnc2[C@H](C)OC)c2c3cc(ccc31)-c1csc(n1)C[C@H](NC(=O)[C@H](C(C)C)N(C)C(=O)[C@H]1CCN(C(=O)CNC)C1)C(=O)N1CCC[C@H](N1)C(=O)OCC(C)(C)C2 [Example A99]

["5.00 to 6.00", "6.00 to 7.00", "6.00 to 7.00"]

Entry CCn1c(-c2cccnc2[C@H](C)OC)c2c3cc(ccc31)-c1csc(n1)C[C@H](NC(=O)[C@H](C(C)C)N(C)C(=O)N1CC(OC(F)F)C1)C(=O)N1CCC[C@H](N1)C(=O)OCC(C)(C)C2 (atropisomer, axis not shown) [Example A302] — recorded pIC50 = 6.00 to 7.00

###

# measuredOn: KRAS WT (Homo sapiens, UniProt P01116+P62937)
# Sequence (P01116 1-169 isoform P01116-2 limits assumed): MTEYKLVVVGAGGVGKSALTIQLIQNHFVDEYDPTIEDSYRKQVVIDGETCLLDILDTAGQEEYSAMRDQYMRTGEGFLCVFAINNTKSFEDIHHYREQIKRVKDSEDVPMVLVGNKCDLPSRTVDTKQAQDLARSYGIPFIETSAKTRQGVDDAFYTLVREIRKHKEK
# Sequence (P62937 whole entry): as the sequence (P62937 whole entry) above
# experiment: Disruption of BRAF RBD interaction with Ras (FRET / MOA assay, with Cyclophilin A)
# Type: biochemical
# condition: KRAS WT; read-out: KRAS WT FRET data IC50
Record form. Attribute: IC50. Fill in for each entry.

Please give IC50, item by item, for the list that follows.
1. CCn1c(-c2cccnc2[C@H](C)OC)c2c3cc(ccc31)-c1cc(O)cc(c1)C[C@H](NC(=O)[C@H](C(C)C)N(C)C(=O)[C@H]1C[C@H](O)C1)C(=O)N1CCC[C@H](N1)C(=O)OCC(C)(C)C2 [Example A241]
2. C=CC(=O)N1CC[C@H](C(=O)N(C)[C@H](C(=O)N[C@H]2Cc3cc(O)cc(c3)-c3ccc4c(c3)c(c(-c3cncc(CN(C)C)c3)n4CC)CC(C)(C)COC(=O)[C@@H]3CCCN(N3)C2=O)C(C)C)C1 [Example A073]

10 to 100 nM
1000 to 10000 nM

###

# measuredOn: KRAS G12V (Homo sapiens, UniProt P01116+P62937, G12V)
# Sequence (P01116 1-169 isoform P01116-2 G12V limits assumed): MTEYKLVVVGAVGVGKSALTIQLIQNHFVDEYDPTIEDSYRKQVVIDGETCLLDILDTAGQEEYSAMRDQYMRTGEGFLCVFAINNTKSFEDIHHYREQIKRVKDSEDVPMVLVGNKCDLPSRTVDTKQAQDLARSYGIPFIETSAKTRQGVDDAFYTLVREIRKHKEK
# Sequence (P62937 whole entry): as the sequence (P62937 whole entry) above
# experiment: Disruption of BRAF RBD interaction with Ras (FRET / MOA assay, with Cyclophilin A)
# Assay type: biochemical
# condition: KRAS G12V; read-out: KRAS G12V FRET data IC50
pIC50: −log10 of the molar value.
observable: pIC50

Before answering, review these 3 worked examples.
INSERT INTO results (compound, observable, recordedresult) VALUES
  ('CCn1c(-c2cnccc2COC)c2c3cc(ccc31)-c1cc(O)cc(c1)C[C@H](NC(=O)[C@H](C(C)C)N(C)C(=O)[C@H]1CCN(C(=O)/C=C/CN(C)C)C1)C(=O)N1CCC[C@H](N1)C(=O)OCC(C)(C)C2', 'pIC50', '7.00 to 8.00'),
  ('CCn1c(-c2cccnc2[C@H](C)OC)c2c3cc(ccc31)-c1csc(n1)C[C@H](NC(=O)[C@H](C(C)C)N(C)C(=O)N1CC[C@@H](O)C1)C(=O)N1CCC[C@H](N1)C(=O)OCC(C)(C)C2 (atropisomer, axis not shown)', 'pIC50', '6.00 to 7.00'),
  ('CCn1c(-c2cccnc2[C@H](C)OC)c2c3cc(ccc31)-c1csc(n1)C[C@H](NC(=O)[C@H](C(C)C)N(C)C(=O)[C@H]1CCN(C(=O)C(C)(C)N(C)C)C1)C(=O)N1CCC[C@H](N1)C(=O)OCC(C)(C)C2', 'pIC50', '5.00 to 6.00');

Proceed to the following item.
Entry CCn1c(-c2cccnc2[C@H](C)OC)c2c3cc(ccc31)-c1csc(n1)C[C@H](NC(=O)[C@H](C(C)C)N(C)C(=O)N1CCN3CCOC[C@@H]3C1)C(=O)N1CCC[C@H](N1)C(=O)OCC(C)(C)C2 — recorded pIC50 = 6.00 to 7.00
